Recorded Tmax values for a group of compounds are listed next.
assay: Pharmacokinetics and brain uptake in mice after i.p. administration; format: in vivo, mouse (Albino Swiss); details: ip; mouse Albino Swiss, 10 mg/kg i.p., plasma; read-out: Tmax, plasma
EXPERIMENTAL READOUT: Tmax (min)

* COc1cccc(-c2ccc3nc(-c4ccccc4Cl)n(C)c(=O)c3c2)c1OC [ALX-171] | 30
* Cn1c(-c2ccccc2Cl)nc2ccc(-c3ccccc3)cc2c1=O [ALX-065] | 15

---

test: Pharmacokinetics of ALX-171 after i.v. and p.o. administration; type: in vivo; conditions: mouse, po; brain, p.o. 5 mg/kg, female BALB/c mice
EXPERIMENTAL READOUT: Tmax (min)

• COc1cccc(-c2ccc3nc(-c4ccccc4Cl)n(C)c(=O)c3c2)c1OC = 30

---

assay: Pharmacokinetics of ALX-171 after i.v. and p.o. administration; format: in vivo; conditions: mouse, iv; plasma, i.v. 3 mg/kg, female BALB/c mice
EXPERIMENTAL READOUT: half-life (h)

• COc1cccc(-c2ccc3nc(-c4ccccc4Cl)n(C)c(=O)c3c2)c1OC [ALX-171] = 2.26

---

target: CYP2D6 (Homo sapiens); test: CYP inhibition assay, recombinant enzyme, fluorescence; details: test concentrations 1.1, 3.3 and 10 μM; read-out: Cytochrome P450 2D6 IC50
Sequence (P10635 whole entry): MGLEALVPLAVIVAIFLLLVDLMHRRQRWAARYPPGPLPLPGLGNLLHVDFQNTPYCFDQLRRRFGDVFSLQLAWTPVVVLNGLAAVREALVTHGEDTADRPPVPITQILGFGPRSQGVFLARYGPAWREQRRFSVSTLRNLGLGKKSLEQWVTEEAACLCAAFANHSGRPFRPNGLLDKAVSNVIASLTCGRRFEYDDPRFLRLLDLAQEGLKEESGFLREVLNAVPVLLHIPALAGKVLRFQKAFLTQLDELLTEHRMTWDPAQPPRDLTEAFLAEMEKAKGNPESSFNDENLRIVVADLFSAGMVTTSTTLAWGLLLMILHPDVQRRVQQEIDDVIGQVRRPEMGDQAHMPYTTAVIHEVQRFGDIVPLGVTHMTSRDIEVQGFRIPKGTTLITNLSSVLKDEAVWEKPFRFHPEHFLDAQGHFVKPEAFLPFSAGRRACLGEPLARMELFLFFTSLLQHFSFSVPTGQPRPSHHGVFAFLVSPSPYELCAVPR
EXPERIMENTAL READOUT: IC50

• Cn1c(-c2ccccc2Cl)nc2ccc(-c3ccccc3)cc2c1=O = > 10 µM
• COc1cccc(-c2ccc3nc(-c4ccccc4Cl)n(C)c(=O)c3c2)c1OC = > 10 µM

---

test: Pharmacokinetics of ALX-171 after i.v. and p.o. administration; assay type: in vivo; details: mouse, po; brain, p.o. 5 mg/kg, female BALB/c mice
EXPERIMENTAL READOUT: Cmax (nM)

* COc1cccc(-c2ccc3nc(-c4ccccc4Cl)n(C)c(=O)c3c2)c1OC [ALX-171] | 1360

---

assay: Pharmacokinetics and brain uptake in mice after i.p. administration; format: in vivo, mouse (Albino Swiss); conditions: ip; mouse Albino Swiss, 10 mg/kg i.p., plasma; read-out: T1/2, plasma (converted)
Recorded half-life values for a group of compounds are listed next.
EXPERIMENTAL READOUT: half-life

• COc1cccc(-c2ccc3nc(-c4ccccc4Cl)n(C)c(=O)c3c2)c1OC = 5.2 h
• Cn1c(-c2ccccc2Cl)nc2ccc(-c3ccccc3)cc2c1=O = 1.31 h

---

experiment: Pharmacokinetics of ALX-171 after i.v. and p.o. administration; type: in vivo; conditions: mouse, po; plasma, p.o. 5 mg/kg, female BALB/c mice
EXPERIMENTAL READOUT: Tmax (min)

- COc1cccc(-c2ccc3nc(-c4ccccc4Cl)n(C)c(=O)c3c2)c1OC: 30

---

experiment: Pharmacokinetics of ALX-171 after i.v. and p.o. administration; type: in vivo; settings: mouse, iv; brain, i.v. 3 mg/kg, female BALB/c mice
EXPERIMENTAL READOUT: Tmax

- COc1cccc(-c2ccc3nc(-c4ccccc4Cl)n(C)c(=O)c3c2)c1OC [ALX-171]: 15 min

---

Recorded Cmax, brain values for a group of molecules are listed next.
test: Pharmacokinetics and brain uptake in mice after i.p. administration; assay type: in vivo, mouse (Albino Swiss); conditions: mouse Albino Swiss, 10 mg/kg i.p., brain
EXPERIMENTAL READOUT: Cmax, brain (µM/L)

• CCc1nc2c(o1)CC(c1ccc(C)cc1C)CC2=O (stereo not shown) [ADX71743, reference compound] = 3.38
• COc1cccc(-c2ccc3nc(-c4ccccc4Cl)n(C)c(=O)c3c2)c1OC = 2.52
• Cn1c(-c2ccccc2Cl)nc2ccc(-c3ccccc3)cc2c1=O = 1.81
• COc1ccc(-c2cc3onc(-c4ccncc4)c3c(=O)n2C)cc1 [MMPIP, reference compound] = 5.42

---

Recorded AUC(0-t) values for a group of compounds are listed next.
experiment: Pharmacokinetics and brain uptake in mice after i.p. administration; type: in vivo, mouse (Albino Swiss); details: ip; mouse Albino Swiss, 10 mg/kg i.p., plasma; read-out: AUC0-t, plasma
EXPERIMENTAL READOUT: AUC(0-t) (µM·h)

• COc1ccc(-c2cc3onc(-c4ccncc4)c3c(=O)n2C)cc1 [MMPIP, reference compound] = 13.5
• CCc1nc2c(o1)CC(c1ccc(C)cc1C)CC2=O (stereo not shown) [ADX71743, reference compound] = 1.9
• COc1cccc(-c2ccc3nc(-c4ccccc4Cl)n(C)c(=O)c3c2)c1OC = 13.4
• Cn1c(-c2ccccc2Cl)nc2ccc(-c3ccccc3)cc2c1=O = 1.99

---

assay: Pharmacokinetics of ALX-171 after i.v. and p.o. administration; format: in vivo; conditions: mouse, iv; brain, i.v. 3 mg/kg, female BALB/c mice
EXPERIMENTAL READOUT: AUC(0-t) (µM·h)

* COc1cccc(-c2ccc3nc(-c4ccccc4Cl)n(C)c(=O)c3c2)c1OC [ALX-171] | 3.27

---

assay: Pharmacokinetics of ALX-171 after i.v. and p.o. administration; assay type: in vivo; conditions: mouse, iv; plasma, i.v. 3 mg/kg, female BALB/c mice
EXPERIMENTAL READOUT: Vd (L/kg)

- COc1cccc(-c2ccc3nc(-c4ccccc4Cl)n(C)c(=O)c3c2)c1OC [ALX-171]: 7.63

---

Recorded IC50 values for a group of molecules are listed next.
target: CYP2B6 (Homo sapiens); assay: CYP inhibition assay, recombinant enzyme, fluorescence; conditions: test concentrations 1.1, 3.3 and 10 μM; read-out: Cytochrome P450 2B6 IC50
Sequence (P20813 whole entry): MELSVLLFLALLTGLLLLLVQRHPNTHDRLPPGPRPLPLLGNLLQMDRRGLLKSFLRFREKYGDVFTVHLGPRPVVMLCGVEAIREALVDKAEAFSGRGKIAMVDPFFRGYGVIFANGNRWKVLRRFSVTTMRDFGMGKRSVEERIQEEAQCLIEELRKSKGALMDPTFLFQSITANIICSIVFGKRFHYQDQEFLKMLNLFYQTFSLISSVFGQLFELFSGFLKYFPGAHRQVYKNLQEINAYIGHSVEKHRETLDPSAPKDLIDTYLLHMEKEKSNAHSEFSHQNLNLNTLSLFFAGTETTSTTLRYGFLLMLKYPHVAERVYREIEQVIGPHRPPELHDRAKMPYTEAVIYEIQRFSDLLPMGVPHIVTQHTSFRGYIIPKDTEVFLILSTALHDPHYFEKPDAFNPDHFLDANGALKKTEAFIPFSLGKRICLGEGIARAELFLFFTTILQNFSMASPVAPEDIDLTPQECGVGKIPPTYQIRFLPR
EXPERIMENTAL READOUT: IC50

- Cn1c(-c2ccccc2Cl)nc2ccc(-c3ccccc3)cc2c1=O: > 10 µM
- COc1cccc(-c2ccc3nc(-c4ccccc4Cl)n(C)c(=O)c3c2)c1OC: > 10 µM

---

Recorded Tmax values for a group of molecules are listed next.
assay: Pharmacokinetics and brain uptake in mice after i.p. administration; type: in vivo, mouse (Albino Swiss); details: ip; mouse Albino Swiss, 10 mg/kg i.p., brain; read-out: Tmax, brain
EXPERIMENTAL READOUT: Tmax (min)

- COc1cccc(-c2ccc3nc(-c4ccccc4Cl)n(C)c(=O)c3c2)c1OC [ALX-171]: 15
- Cn1c(-c2ccccc2Cl)nc2ccc(-c3ccccc3)cc2c1=O [ALX-065]: 15

---

test: Metabolic stability in mouse microsomal fraction; type: in vitro ADME; details: 1 µM, mouse microsomes 0.3 mg/mL, NADPH-regenerating system
Recorded MML (metabolic stability liver microsome mouse) values for a group of compounds are listed next.
EXPERIMENTAL READOUT: MML (metabolic stability liver microsome mouse) (% remaining after 60 min)

• COc1ccc(-c2cc3onc(-c4ccncc4)c3c(=O)n2C)cc1 [MMPIP, reference compound] = 49.78
• COc1cccc(-c2ccc3nc(-c4ccccc4Cl)n(C)c(=O)c3c2)c1OC = 54.01
• Cn1c(-c2ccccc2Cl)nc2ccc(-c3ccccc3)cc2c1=O = 0.81
• CCc1nc2c(o1)CC(c1ccc(C)cc1C)CC2=O (stereo not shown) [ADX71743, reference compound] = 0.01

---

test: Pharmacokinetics of ALX-171 after i.v. and p.o. administration; format: in vivo; conditions: mouse, po; brain, p.o. 5 mg/kg, female BALB/c mice
EXPERIMENTAL READOUT: AUC(0-t) (µM·h)

• COc1cccc(-c2ccc3nc(-c4ccccc4Cl)n(C)c(=O)c3c2)c1OC = 2.97

---

test: Pharmacokinetics of ALX-171 after i.v. and p.o. administration; format: in vivo; conditions: mouse, iv; brain, i.v. 3 mg/kg, female BALB/c mice
EXPERIMENTAL READOUT: Cmax (nM)

- COc1cccc(-c2ccc3nc(-c4ccccc4Cl)n(C)c(=O)c3c2)c1OC: 1850

---

target: recombinant human mGlu7 receptor (Homo sapiens, UniProt Q14831); assay: NAM mGlu7 activity, forskolin-induced cAMP (HTRF) in T-REx 293 cell line; settings: T-REx 293 cells expressing human mGlu7; 5 µM LSP4-2022 (EC80), 5 µM forskolin
Sequence (Q14831 35-915): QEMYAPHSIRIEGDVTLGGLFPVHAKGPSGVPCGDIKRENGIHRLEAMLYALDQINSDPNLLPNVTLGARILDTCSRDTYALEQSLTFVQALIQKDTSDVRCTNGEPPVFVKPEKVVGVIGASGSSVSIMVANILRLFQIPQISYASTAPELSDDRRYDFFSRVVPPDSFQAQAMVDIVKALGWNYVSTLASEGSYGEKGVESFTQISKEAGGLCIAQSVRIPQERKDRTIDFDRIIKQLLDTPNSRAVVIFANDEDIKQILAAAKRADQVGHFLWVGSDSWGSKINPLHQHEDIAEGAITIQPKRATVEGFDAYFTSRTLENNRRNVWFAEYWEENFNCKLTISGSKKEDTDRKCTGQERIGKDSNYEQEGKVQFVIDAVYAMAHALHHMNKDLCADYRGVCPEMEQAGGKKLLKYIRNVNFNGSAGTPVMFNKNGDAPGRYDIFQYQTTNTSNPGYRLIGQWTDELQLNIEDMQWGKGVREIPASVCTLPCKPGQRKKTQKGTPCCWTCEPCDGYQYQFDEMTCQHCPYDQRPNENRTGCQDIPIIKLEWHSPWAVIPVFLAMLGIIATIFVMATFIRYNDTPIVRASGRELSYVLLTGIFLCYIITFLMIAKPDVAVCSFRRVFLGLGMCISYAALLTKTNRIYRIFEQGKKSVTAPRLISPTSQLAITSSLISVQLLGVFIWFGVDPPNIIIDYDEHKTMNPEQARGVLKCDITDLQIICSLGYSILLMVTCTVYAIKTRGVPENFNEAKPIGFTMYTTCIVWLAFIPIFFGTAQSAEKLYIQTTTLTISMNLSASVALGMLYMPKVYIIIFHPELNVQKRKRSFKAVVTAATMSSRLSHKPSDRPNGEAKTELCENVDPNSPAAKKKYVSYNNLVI
EXPERIMENTAL READOUT: IC50 (µM)

* Cn1c(-c2ccccc2Cl)nc2ccc(-c3ccccc3)cc2c1=O | 4.65
* Cn1c(-c2ccccc2)nc2ccc(-c3ccccc3)cc2c1=O | 6.5
* COc1cccc(-c2ccc3nc(-c4ccccc4Cl)n(C)c(=O)c3c2)c1OC | 6.14

---

test: Pharmacokinetics of ALX-171 after i.v. and p.o. administration; type: in vivo; conditions: mouse, po; plasma, p.o. 5 mg/kg, female BALB/c mice
EXPERIMENTAL READOUT: AUC(0-t) (µM·h)

* COc1cccc(-c2ccc3nc(-c4ccccc4Cl)n(C)c(=O)c3c2)c1OC | 2.63

---

test: Pharmacokinetics and brain uptake in mice after i.p. administration; type: in vivo, mouse (Albino Swiss); details: ip; mouse Albino Swiss, 10 mg/kg i.p., brain; read-out: AUC0-t, brain
Recorded AUC(0-t) values for a group of compounds are listed next.
EXPERIMENTAL READOUT: AUC(0-t) (µM·h)

- Cn1c(-c2ccccc2Cl)nc2ccc(-c3ccccc3)cc2c1=O [ALX-065]: 1.32
- CCc1nc2c(o1)CC(c1ccc(C)cc1C)CC2=O (stereo not shown) [ADX71743, reference compound]: 2.27
- COc1cccc(-c2ccc3nc(-c4ccccc4Cl)n(C)c(=O)c3c2)c1OC [ALX-171]: 13.8
- COc1ccc(-c2cc3onc(-c4ccncc4)c3c(=O)n2C)cc1 [MMPIP, reference compound]: 8.98
